target: hypoxanthine-xanthine oxidase system (Homo sapiens, UniProt P47989); assay: Cell-free O2^- generation by hypoxanthine-xanthine oxidase system (scavenging test); type: biochemical; details: control (DMSO) 12 ± 1.1, test concentration not given
Sequence (P47989 whole entry): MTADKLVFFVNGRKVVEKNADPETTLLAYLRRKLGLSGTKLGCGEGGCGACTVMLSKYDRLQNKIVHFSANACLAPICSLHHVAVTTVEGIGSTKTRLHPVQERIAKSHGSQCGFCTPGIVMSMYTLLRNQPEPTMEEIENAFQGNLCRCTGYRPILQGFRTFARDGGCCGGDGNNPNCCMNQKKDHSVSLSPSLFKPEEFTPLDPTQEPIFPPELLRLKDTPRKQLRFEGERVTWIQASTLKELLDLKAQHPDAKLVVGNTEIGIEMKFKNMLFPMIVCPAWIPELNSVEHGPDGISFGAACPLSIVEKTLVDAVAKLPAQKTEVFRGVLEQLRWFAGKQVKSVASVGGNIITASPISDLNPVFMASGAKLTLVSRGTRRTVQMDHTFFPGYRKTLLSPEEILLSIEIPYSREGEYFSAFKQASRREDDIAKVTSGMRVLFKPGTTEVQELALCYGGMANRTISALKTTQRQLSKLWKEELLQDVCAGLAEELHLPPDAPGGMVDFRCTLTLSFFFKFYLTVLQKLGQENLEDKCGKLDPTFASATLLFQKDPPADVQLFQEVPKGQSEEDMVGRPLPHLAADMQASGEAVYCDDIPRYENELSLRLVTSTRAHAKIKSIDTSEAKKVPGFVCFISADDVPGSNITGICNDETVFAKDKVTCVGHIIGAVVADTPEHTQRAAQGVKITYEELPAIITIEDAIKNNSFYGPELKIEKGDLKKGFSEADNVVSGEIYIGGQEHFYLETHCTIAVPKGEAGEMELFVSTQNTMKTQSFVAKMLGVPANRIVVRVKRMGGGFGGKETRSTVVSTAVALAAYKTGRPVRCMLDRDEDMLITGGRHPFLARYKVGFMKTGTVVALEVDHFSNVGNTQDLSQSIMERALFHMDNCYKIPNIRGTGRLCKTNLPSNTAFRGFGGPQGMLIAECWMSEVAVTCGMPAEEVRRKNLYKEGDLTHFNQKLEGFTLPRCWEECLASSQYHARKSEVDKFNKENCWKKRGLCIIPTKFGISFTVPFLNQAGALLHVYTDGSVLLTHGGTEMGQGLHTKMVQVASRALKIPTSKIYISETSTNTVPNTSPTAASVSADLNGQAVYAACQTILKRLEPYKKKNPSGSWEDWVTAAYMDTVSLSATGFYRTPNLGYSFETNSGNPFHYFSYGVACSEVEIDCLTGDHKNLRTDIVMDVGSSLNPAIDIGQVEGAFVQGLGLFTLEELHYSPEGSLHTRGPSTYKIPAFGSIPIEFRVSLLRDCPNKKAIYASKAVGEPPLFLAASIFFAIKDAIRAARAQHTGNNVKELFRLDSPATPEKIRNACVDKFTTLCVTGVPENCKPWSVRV
measured property: O2^- generated by hypoxanthine-xanthine oxidase system (nmoles/30 min)
Numbers only here, please. The scale is nmoles/30 min.

The examples below pair each entry with its known result.
C1=C\CC[C@]23CN4CCCC/C=C\CC[C@@]5(O[C@H]5[C@@H](c5nccc6c5[nH]c5ccccc56)[C@@H]2CC4)[C@@H]3NCCCC/1 [MZB, manzamine B]    15.3
O[C@]12C=C(c3nccc4c3[nH]c3ccccc34)[C@@H]3CCN(CCCC/C=C\CC1)C[C@@]31C[C@@H]3/C=C\CCCCN3[C@H]12 [MZA, manzamine A]    15.3

// next item, O2^- generated by hypoxanthine-xanthine oxidase system requested
Task: Name the reported O2^- generated by hypoxanthine-xanthine oxidase system value associated with the molecule O=C1CCCN2[C@@H](CC1)C[C@]13CN4CCCC/C=C\CC[C@](O)(C=C(c5nccc6c5[nH]c5ccccc56)[C@@H]1CC4)[C@H]23 [MZE, manzamine E]
Result: 16.3

====

tested on: LPS-activated rat neonatal microglia; experiment: PMA-stimulated O2^- generation by LPS-activated rat neonatal microglia (SOD-inhibitable FCC reduction); format: cell-based; details: Rattus norvegicus, Microglia; PMA 1 μM, 70 min; LPS 0.3 ng/mL 17 h
measured property: pIC50
Units for pIC50: none; it is -log10 of a concentration expressed in mol/L.

O[C@]12C=C(c3nccc4c3[nH]c3ccccc34)[C@@H]3CCN(CCCC/C=C\CC1)C[C@@]31C[C@@H]3/C=C\CCCCN3[C@H]12    7.00
C1=C\CCCCN(CCc2nccc3c2[nH]c2ccccc23)CCCC/1    5.46

// next item, pIC50 requested
Task: Name the reported pIC50 value associated with the compound `C1=C\CC[C@]23CN4CCCC/C=C\CC[C@@]5(O[C@H]5[C@@H](c5nccc6c5[nH]c5ccccc56)[C@@H]2CC4)[C@@H]3NCCCC/1`
Result: 5.50

====

target: hypoxanthine-xanthine oxidase system (Homo sapiens, UniProt P47989); experiment: Cell-free O2^- generation by hypoxanthine-xanthine oxidase system (scavenging test); assay type: biochemical; settings: control (DMSO) 12 ± 1.1, test concentration not given
measured property: O2^- generated by hypoxanthine-xanthine oxidase system (nmoles/30 min)
Numbers only here, please. The scale is nmoles/30 min.

The examples below pair each entry with its known result.
C1=C\CCCCN(CCc2nccc3c2[nH]c2ccccc23)CCCC/1    20.7
O=C1CCCN2[C@@H](CC1)C[C@]13CN4CCCC/C=C\CC[C@](O)(C=C(c5nccc6c5[nH]c5c(O)cccc56)C1CC4)[C@H]23 (stereo partly drawn)    20.1

// next item, O2^- generated by hypoxanthine-xanthine oxidase system requested
Task: Name the reported O2^- generated by hypoxanthine-xanthine oxidase system value associated with the compound O[C@]12C=C(C3NCCc4c3[nH]c3ccccc43)[C@@H]3CCN(CCCC/C=C\CC1)C[C@@]31C[C@@H]3/C=C\CCCCN3[C@H]12 (stereo partly drawn)
Result: 22.2

====

system: LPS-activated rat neonatal microglia; test: OPZ-stimulated O2^- generation by LPS-activated rat neonatal microglia (SOD-inhibitable FCC reduction); type: cell-based; details: Rattus norvegicus, Microglia; OPZ 0.5 mg/mL, 70 min; LPS 0.3 ng/mL 17 h
pIC50: −log10 of the molar value.
Measured pIC50 of individual entries

C1=C\CCCCN(CCc2nccc3c2[nH]c2ccccc23)CCCC/1    5.03
O=C1CCCN2[C@@H](CC1)C[C@]13CN4CCCC/C=C\CC[C@](O)(C=C(c5nccc6c5[nH]c5c(O)cccc56)C1CC4)[C@H]23 (stereo partly drawn)    < 5.00
O[C@]12C=C(c3nccc4c3[nH]c3ccccc34)[C@@H]3CCN(CCCC/C=C\CC1)C[C@@]31C[C@@H]3/C=C\CCCCN3[C@H]12    < 5.00
O[C@]12C=C(C3NCCc4c3[nH]c3ccccc43)[C@@H]3CCN(CCCC/C=C\CC1)C[C@@]31C[C@@H]3/C=C\CCCCN3[C@H]12 (stereo partly drawn)    < 5.00
O=C1CCCN2[C@@H](CC1)C[C@]13CN4CCCC/C=C\CC[C@](O)(C=C(c5nccc6c5[nH]c5ccccc56)[C@@H]1CC4)[C@H]23    < 5.00

// next item, pIC50 requested
Task: Name the reported pIC50 value associated with the compound `C1=C\CC[C@]23CN4CCCC/C=C\CC[C@@]5(O[C@H]5[C@@H](c5nccc6c5[nH]c5ccccc56)[C@@H]2CC4)[C@@H]3NCCCC/1`
Result: 5.38

Values from paper PMC1079881
